The measurements presented in this section are drawn from patent US12351597B2.

target: FimH (Escherichia coli); construct: endogenous in cells; host or cells: E. coli UTI89 whole bacteria (piliated), with guinea pig red blood cells; assay: Hemagglutination inhibition assay (HAI); type: cell-based; details: HAI titer / EC>90: concentration reducing bacterial agglutination of guinea pig red blood cells by >90%; UTI89 bacteria

Compound	System Under Test	HAI nM
OC[C@H]1O[C@H](Oc2c(F)cc(-c3nccc(C(F)(F)F)n3)cc2C(F)(F)F)[C@@H](O)[C@@H](O)[C@@H]1O [Example 36]	FimH (Escherichia coli)	“++++” (<50)
Cc1cc(-c2ccnc(N(C)C)c2)ccc1O[C@H]1O[C@H](CO)[C@@H](O)[C@H](O)[C@@H]1O [Example 10]	FimH (Escherichia coli)	“++++” (<50)
Cc1cc(-c2ccnc(C(F)(F)F)c2)ccc1O[C@H]1O[C@H](CO)[C@@H](O)[C@H](O)[C@@H]1O [Example 24]	FimH (Escherichia coli)	“+++” (50-200)
N#Cc1cc(F)cc(-c2ccc(O[C@H]3O[C@H](CO)[C@@H](O)[C@H](O)[C@@H]3O)c(Cl)c2)c1 [Example 11]	FimH (Escherichia coli)	“+++” (50-200)
Cc1cc(-c2cnc(C(F)(F)F)c(F)c2)ccc1O[C@H]1O[C@H](CO)[C@@H](O)[C@H](O)[C@@H]1O [Example 21]	FimH (Escherichia coli)	“+++” (50-200)
Cc1cc(-c2cnc(C(F)(F)F)cn2)ccc1O[C@H]1O[C@H](CO)[C@@H](O)[C@H](O)[C@@H]1O [Example 1]	FimH (Escherichia coli)	“++++” (<50)
Cc1cc(-c2cnc(C(F)(F)F)nc2)ccc1O[C@H]1O[C@H](CO)[C@@H](O)[C@H](O)[C@@H]1O [Example 16]	FimH (Escherichia coli)	“++++” (<50)
OC[C@H]1O[C@H](Oc2ccc(-c3ccc(C(F)(F)F)cn3)cc2C(F)(F)F)[C@@H](O)[C@@H](O)[C@@H]1O [Example 32]	FimH (Escherichia coli)	“+++” (50-200)
Cc1cc(-c2ccc(N3CCCC3)nc2)ccc1O[C@H]1O[C@H](CO)[C@@H](O)[C@H](O)[C@@H]1O [Example 9]	FimH (Escherichia coli)	“++++” (<50)
OC[C@H]1O[C@H](Oc2ccc(-c3cc(C(F)(F)F)c(F)cn3)cc2C(F)(F)F)[C@@H](O)[C@@H](O)[C@@H]1O [Example 20]	FimH (Escherichia coli)	“+++” (50-200)
OC[C@H]1O[C@H](Oc2c(F)cc(-c3cnc(C(F)(F)F)cn3)cc2C(F)(F)F)[C@@H](O)[C@@H](O)[C@@H]1O [Example 2]	FimH (Escherichia coli)	“++++” (<50)
OC[C@H]1O[C@H](Oc2c(F)cc(-c3cc(C(F)(F)F)ccn3)cc2C(F)(F)F)[C@@H](O)[C@@H](O)[C@@H]1O [Example 19]	FimH (Escherichia coli)	“++++” (<50)
N#Cc1cncc(-c2cc(F)c(O[C@H]3O[C@H](CO)[C@@H](O)[C@H](O)[C@@H]3O)c(C(F)(F)F)c2)c1 [Example 38]	FimH (Escherichia coli)	“++++” (<50)

###

Biological target: FimH (Escherichia coli, UniProt Q1R2J4)
Construct: endogenous in cells; host or cells: E. coli UTI89 whole bacteria (piliated), with guinea pig red blood cells
Test: Hemagglutination inhibition assay (HAI)
Type: cell-based
Details: HAI titer / EC>90: concentration reducing bacterial agglutination of guinea pig red blood cells by >90%; UTI89 bacteria
From the text: “HAI titer or EC>90” is that concentration of the FimH inhibitor/antagonist which reduces the bacterial agglutination of guinea pig red blood cells by greater than 90%. The activities of the Examples 1-40 compounds above as FimH antagonists/inhibitors were obtained by the following assay(s), and values are provided in Table 1. The values not provided mean that the activities have not yet been tested. Hemagglutination Inhibition Assay (HAI) […]

Compound	HAI nM
Cc1cc(-c2cnc(C3CC3)cn2)ccc1O[C@H]1O[C@H](CO)[C@@H](O)[C@H](O)[C@@H]1O [Example 12]	“++++” (<50)
OC[C@H]1O[C@H](Oc2ccc(-c3cccc(C(F)(F)F)n3)cc2C(F)(F)F)[C@@H](O)[C@@H](O)[C@@H]1O [Example 39]	“+++” (50-200)
Cc1cc(-c2ccnc(C(F)(F)F)n2)ccc1O[C@H]1O[C@H](CO)[C@@H](O)[C@H](O)[C@@H]1O [Example 14]	“+++” (50-200)
Cc1cc(-c2cncc(C(F)(F)F)n2)ccc1O[C@H]1O[C@H](CO)[C@@H](O)[C@H](O)[C@@H]1O [Example 34]	“+++” (50-200)
OC[C@H]1O[C@H](Oc2ccc(-c3cnc(C(F)(F)F)cn3)cc2Cl)[C@@H](O)[C@@H](O)[C@@H]1O [Example 33]	“+++” (50-200)
Cc1cc(-c2ncc(C(F)(F)F)cn2)ccc1O[C@H]1O[C@H](CO)[C@@H](O)[C@H](O)[C@@H]1O [Example 15]	“+++” (50-200)
OC[C@H]1O[C@H](Oc2c(F)cc(-c3ccc(C(F)(F)F)cn3)cc2C(F)(F)F)[C@@H](O)[C@@H](O)[C@@H]1O [Example 28]	“++++” (<50)
Cc1cc(-c2cc(C(F)(F)F)ccn2)ccc1O[C@H]1O[C@H](CO)[C@@H](O)[C@H](O)[C@@H]1O [Example 5]	“+++” (50-200)
Cc1cc(-c2cncc(C#N)c2)ccc1O[C@H]1O[C@H](CO)[C@@H](O)[C@H](O)[C@@H]1O [Example 37]	“++++” (<50)
Cc1cc(-c2cnc(N3CCCC3)cn2)ccc1O[C@H]1O[C@H](CO)[C@@H](O)[C@H](O)[C@@H]1O [Example 7]	“++++” (<50)
OC[C@H]1O[C@H](Oc2ccc(-c3cnc(C(F)(F)F)cn3)cc2C(F)(F)F)[C@@H](O)[C@@H](O)[C@@H]1O [Example 3]	“+++” (50-200)
N#Cc1cc(F)cc(-c2cc(F)c(O[C@H]3O[C@H](CO)[C@@H](O)[C@H](O)[C@@H]3O)c(C(F)(F)F)c2)c1 [Example 6]	“++++” (<50)
OC[C@H]1O[C@H](Oc2ccc(-c3ncc(C(F)(F)F)cn3)cc2C(F)(F)F)[C@@H](O)[C@@H](O)[C@@H]1O [Example 22]	“+++” (50-200)
OC[C@H]1O[C@H](Oc2ccc(-c3cc(C(F)(F)F)ccn3)cc2C(F)(F)F)[C@@H](O)[C@@H](O)[C@@H]1O [Example 18]	“+++” (50-200)
COc1ccc(-c2ccc(O[C@H]3O[C@H](CO)[C@@H](O)[C@H](O)[C@@H]3O)c(C)c2)cn1 [Example 8]	“+++” (50-200)
Cc1cc(-c2cccc(C(F)(F)F)n2)ccc1O[C@H]1O[C@H](CO)[C@@H](O)[C@H](O)[C@@H]1O [Example 40]	“+++” (50-200)

###

experiment: Rat pharmacokinetics (IV infusion 1 mg/kg, then PO 5 mg/kg; blood and urine); format: in vivo, Male Wistar Han rats; settings: PO 5 mg/kg, blood, AUC divided by dose in mg/kg
Observable: PK DNAUC h * uM (DNAUC oral, dose normalized)

1. OC[C@H]1O[C@H](Oc2c(F)cc(-c3ccc(C(F)(F)F)cn3)cc2C(F)(F)F)[C@@H](O)[C@@H](O)[C@@H]1O “+++” (>0.2 h · μM)
2. Cc1cc(-c2cc(C(F)(F)F)ccn2)ccc1O[C@H]1O[C@H](CO)[C@@H](O)[C@H](O)[C@@H]1O “+++” (>0.2 h · μM)

###

experiment: Rat pharmacokinetics (IV infusion 1 mg/kg, then PO 5 mg/kg; blood and urine); type: in vivo, Male Wistar Han rats; conditions: male, Wistar Han, whole blood, oral bioavailability from dose-normalized AUC, PO 5 mg/kg vs IV infusion 1 mg/kg
Reported bioavailability values are given for each entry in this list.
Observable: bioavailability

Compound	Observable	Value
Cc1cc(-c2cc(C(F)(F)F)ccn2)ccc1O[C@H]1O[C@H](CO)[C@@H](O)[C@H](O)[C@@H]1O [Example 5]	bioavailability	> 30%
OC[C@H]1O[C@H](Oc2c(F)cc(-c3ccc(C(F)(F)F)cn3)cc2C(F)(F)F)[C@@H](O)[C@@H](O)[C@@H]1O [Example 28]	bioavailability	10 to 30%
OC[C@H]1O[C@H](Oc2ccc(-c3cnc(C(F)(F)F)cn3)cc2C(F)(F)F)[C@@H](O)[C@@H](O)[C@@H]1O [Example 3]	bioavailability	10 to 30%
Cc1cc(-c2cc(F)cc(C#N)c2)ccc1O[C@H]1O[C@H](CO)[C@@H](O)[C@H](O)[C@@H]1O [Example 4]	bioavailability	> 30%
Cc1cc(-c2cnc(C(F)(F)F)cn2)ccc1O[C@H]1O[C@H](CO)[C@@H](O)[C@H](O)[C@@H]1O [Example 1]	bioavailability	> 30%
Cc1cc(-c2cnc(C3CC3)cn2)ccc1O[C@H]1O[C@H](CO)[C@@H](O)[C@H](O)[C@@H]1O [Example 12]	bioavailability	> 30%
